target: UniProt:Q02156
Sequence (Q02156 whole entry): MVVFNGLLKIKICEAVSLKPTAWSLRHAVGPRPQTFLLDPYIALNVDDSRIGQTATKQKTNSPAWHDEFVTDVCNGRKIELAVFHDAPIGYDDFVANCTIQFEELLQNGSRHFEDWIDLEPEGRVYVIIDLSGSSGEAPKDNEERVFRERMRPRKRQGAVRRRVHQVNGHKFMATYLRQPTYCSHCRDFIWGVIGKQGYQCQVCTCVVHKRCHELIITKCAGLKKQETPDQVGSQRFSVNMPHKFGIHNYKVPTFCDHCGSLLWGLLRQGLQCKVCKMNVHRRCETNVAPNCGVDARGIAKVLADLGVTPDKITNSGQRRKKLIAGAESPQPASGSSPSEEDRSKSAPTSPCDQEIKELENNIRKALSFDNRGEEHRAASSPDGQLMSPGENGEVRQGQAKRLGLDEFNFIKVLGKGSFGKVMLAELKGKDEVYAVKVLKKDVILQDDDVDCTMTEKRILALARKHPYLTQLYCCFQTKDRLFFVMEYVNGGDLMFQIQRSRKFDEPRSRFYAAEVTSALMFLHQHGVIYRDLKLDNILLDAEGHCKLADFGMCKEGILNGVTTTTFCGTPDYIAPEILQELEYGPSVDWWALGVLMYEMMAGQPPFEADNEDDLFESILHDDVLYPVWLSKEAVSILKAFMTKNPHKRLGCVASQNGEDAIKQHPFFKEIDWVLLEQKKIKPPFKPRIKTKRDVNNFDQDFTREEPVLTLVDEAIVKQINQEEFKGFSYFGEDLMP
pIC50: −log10 of the molar value.

- smilesCode: "CC(C)(C)n1nc(-c2cccc3ccccc23)c2c(N)ncnc21"
  pIC50: "< 4.00"

###

target: Protein kinase C gamma type (Homo sapiens)
pIC50: −log10 of the molar value.

- smilesCode: "CC(C)(C)n1nc(-c2cccc3ccccc23)c2c(N)ncnc21"
  pIC50: "< 4.00"
